assay method text: Plasma and brain levels in male CD-1 mice after a single IP dose
Format: in vivo, CD-1 mouse
test conditions: male, CD-1, mouse, brain homogenate, ip, 10 mg/kg
Peptide text beside a SMILES is read from it.
readout type: level at 2 h (ng/mL)
One number for each entry, in ng/mL.

[Q] I would be grateful if you could share the reported level at 2 h for CC(C)[C@@H](NC(=O)[C@H](N)Cc1ccc(O)cc1)C(=O)N[C@H](CC(=O)O)C(=O)N[C@H](CCCCN)C(=O)N[C@H](CCCNC(=N)N)C(=O)O [FC-12738, (D-Tyr)-(D-Val)-(D-Asp)-(D-Lys)-(D-Arg)] (HELM PEPTIDE1{[dY].[dV].[dD].[dK].[dR]}$$$$V2.0) .
[A] 6.72
